B1: TPR t1 (parent)
chain: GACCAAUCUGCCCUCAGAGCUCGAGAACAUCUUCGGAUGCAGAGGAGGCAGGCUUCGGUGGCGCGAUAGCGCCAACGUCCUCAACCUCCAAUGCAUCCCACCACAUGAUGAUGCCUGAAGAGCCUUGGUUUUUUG

variants of: B1; assay: polymerase ribozyme fitness, log enrichment relative to wild type (log ratio); higher = more active; in vitro selection for triplet polymerase activity
outcome_measure: polymerase ribozyme fitness (log ratio)
// keep it numeric: no unit symbol after the value

Qu. What does the record list as polymerase ribozyme fitness (log ratio) for C104U U112C ?
Ans. 0.772

Qu. Then what about the variant A6U A27U A121G U130A ?
Ans. -0.823

Qu. Then what about the variant U129C G135C ?
Ans. 0.513

Qu. Then what about the variant A5U A95U ?
Ans. -1.24

Qu. Then what about the variant A18C A91U ?
Ans. -1.86

Qu. Then what about the variant A5G C40U G45U A50C U125A ?
Ans. -4.22

Qu. Then what about the variant G63A A83C G127A G128C ?
Ans. -3.2

Qu. Then what about the variant G10U G25U C34A C99U G113C ?
Ans. -6.47

Qu. Then what about the variant G60A C115G ?
Ans. -1.65

Qu. Then what about the variant C4U A43G G47U C53U G61U ?
Ans. -3.38

Qu. Then what about the variant C13G G113A ?
Ans. -2.45
